- Tested on: OVCAR-8 ovarian
- EXPERIMENT_DESCRIPTION: NCI-60 one-dose screen, 48 h (100 = growth as untreated, 0 = no growth, -100 = all killed)
- CONDITION_CONTEXT: 10 µM unless noted
- Description: Growth inhibition of the OVCAR-8 human tumor cell line is measured as a screen for anti-cancer activity. Cells are grown in 96 well plates and exposed to the test compound for 48 hours. Compounds are tested at a single concentration, which is 10^-5 M for most compounds. The reported endpoint is percent growth (GI% or GIPRCNT), where numbers from 0 - 100% represent growth inhibition, and numbers from -100% - 0 represent cell death. For example, a value of 40 represents 60% growth inhibition. […]
Compounds without any hit were thinned out: in the full panel of roughly 83,000, 20% have a hit.
Class key for growth values: low = under 30%, middle = from 30% up to 60%, high = 60% and over

>>> df
                                smiles_text     study_target  group
0  COc1ccc(-c2cc(C(=O)NCc3ccccc3)nn2-c2ccc(S(C)(=O)=O)cc2)cc1OC  OVCAR-8 ovarian   high

Req: Please classify: COc1cc(-c2nc3ccc(C)cc3[nH]2)ccc1OCc1nnc(-c2ccc(Br)cc2)o1
Resp: low

Req: Tag the class for CN1C(=O)/C(=C/c2ccc(C(=O)Nc3ncc(Cc4ccc(Cl)cc4Cl)s3)cc2)SC1=S
Resp: middle

Req: Note: place this molecule into its band. Item: CN(C)c1nc(NCCNS(=O)(=O)c2ccc(C(=O)/C=C/c3ccc(F)cc3)cc2)nc(Nc2ccc(F)cc2)n1
Resp: low

Req: Into which bin does this molecule go? COc1cc(OC)cc(C(=O)Nc2cccc(-c3cn(-c4ccc(S(N)(=O)=O)cc4)nn3)c2)c1
Resp: middle

Req: Please indicate the class for COc1ccc(NC(=O)Cn2c(/C=C/c3cccc([N+](=O)[O-])c3)nc3ccccc3c2=O)cc1 based on its growth.
Resp: middle

Req: Using the reported growth, which band applies to COc1ccc(C(=O)Nc2n[nH]c(Nc3ccccc3)c2C#N)cc1 ?
Resp: high

Req: Lab note: sort C[C@H]1CN(C(=O)c2ccc3c(NNC(=O)c4ccncn4)nc4cc(F)c(F)cc4n23)CCN1 into the matching growth band.
Resp: low

Req: Which category fits this record: COc1ccc([C@H](C)Nc2nc(Cl)nc3ccccc23)cc1
Resp: middle
